meta.source: patent US8562945B2

ASSAY NOTES: Rat tissue distribution of 99mTc complexes of example ligands (Table 6)
Format: in vivo, Sprague-Dawley Rats
CONDITION PARAMETERS: 99mTc complex, Blood, 5 min
Recorded Blood tissue distribution for the following molecules

Worked set:
- MOLECULE: "N[C@@H](CCCCN(Cc1ccccn1)Cc1ccccn1)C(=O)O [DpK, [ε-{N,N-di(pyridyl-2-methyl)}α-lysine], reference compound]"
  RESULT: "0.58 ± 0.05 % ID/g"
- MOLECULE: "CCOCCn1ccnc1CN(CCCC[C@H](N)C(=O)O)Cc1nccn1CCOCC (stereo in doubt) [Compound 4]"
  RESULT: "0.83 ± 0.09 % ID/g"
- MOLECULE: "N[C@@H](CCCCN(Cc1nccs1)Cc1nccs1)C(=O)O [DtK, (dithiazole)lysine]"
  RESULT: "3.32 ± 0.82 % ID/g"

# input What Blood tissue distribution value was documented for this molecule, Cn1ccnc1CN(CCCC[C@H](N)C(=O)O)Cc1nccn1C [Compound 13] ?
# output 1.18 ± 0.18 % ID/g

* * *

ASSAY NOTES: Rat tissue distribution of 99mTc complexes of example ligands (Table 6)
Assay type: in vivo, Sprague-Dawley Rats
CONDITION PARAMETERS: 99mTc complex, GI, 60 min
RESULT TYPE: GI tissue distribution

Consider the following illustrative entries.
- COMPOUND: "COC(Cn1ccnc1CN(CCCC[C@H](N)C(=O)O)Cc1nccn1CC(OC)OC)OC (stereo in doubt)"
  RESULT: "1.39 ± 0.24 % ID/g"
- COMPOUND: "N[C@@H](CCCCN(Cc1ccccn1)Cc1ccccn1)C(=O)O [DpK, [ε-{N,N-di(pyridyl-2-methyl)}α-lysine], reference compound]"
  RESULT: "1.46 ± 0.09 % ID/g"
- COMPOUND: "N[C@@H](CCCCN(Cc1nccs1)Cc1nccs1)C(=O)O"
  RESULT: "0.73 ± 0.29 % ID/g"
- COMPOUND: "N[C@@H](CCCCN(Cc1nccn1CC(=O)O)Cc1nccn1CC(=O)O)C(=O)O (stereo in doubt)"
  RESULT: "0.76 ± 0.31 % ID/g"
- COMPOUND: "Cn1ccnc1CN(CCCC[C@H](N)C(=O)O)CC(=O)O"
  RESULT: "1.64 ± 0.64 % ID/g"
- COMPOUND: "CCOCCn1ccnc1CN(CCCC[C@H](N)C(=O)O)Cc1nccn1CCOCC (stereo in doubt)"
  RESULT: "3.62 ± 0.3 % ID/g"

# input Requested field: GI tissue distribution. Item: `Cn1ccnc1CN(CCCC[C@H](N)C(=O)O)Cc1nccn1C`
# output 0.84 ± 0.1 % ID/g

* * *

ASSAY NOTES: Rat tissue distribution of 99mTc complexes of example ligands (Table 6)
Format: in vivo, Sprague-Dawley Rats
CONDITION PARAMETERS: 99mTc complex, Liver, 60 min
Mark t for reported Liver tissue distribution of 0.9 % ID/g or greater; mark f for anything smaller.

- MOLECULE: "CCOCCn1ccnc1CN(CCCC[C@H](N)C(=O)O)Cc1nccn1CCOCC (stereo in doubt)"
  DISCRETE LABEL: "f"
- MOLECULE: "Cn1ccnc1CN(CCCC[C@H](N)C(=O)O)CC(=O)O"
  DISCRETE LABEL: "t"
- MOLECULE: "N[C@@H](CCCCN(Cc1ccccn1)Cc1ccccn1)C(=O)O [DpK, [ε-{N,N-di(pyridyl-2-methyl)}α-lysine], reference compound]"
  DISCRETE LABEL: "t"
- MOLECULE: "N[C@@H](CCCCN(Cc1nccn1CC(=O)O)Cc1nccn1CC(=O)O)C(=O)O (stereo in doubt)"
  DISCRETE LABEL: "f"
- MOLECULE: "COC(Cn1ccnc1CN(CCCC[C@H](N)C(=O)O)Cc1nccn1CC(OC)OC)OC (stereo in doubt)"
  DISCRETE LABEL: "f"

# ---- query molecule ----
# input Is Liver tissue distribution for `Cn1ccnc1CN(CCCC[C@H](N)C(=O)O)Cc1nccn1C` at or above 0.9 % ID/g?
# output f

* * *

ASSAY NOTES: Rat tissue distribution of 99mTc complexes of example ligands (Table 6)
Assay type: in vivo, Sprague-Dawley Rats
CONDITION PARAMETERS: 99mTc complex, Blood, 30 min
Measured Blood tissue distribution by item
API: value field is a number in % ID/g; no unit string.

# input Record request: Blood tissue distribution value, item Cn1ccnc1CN(CCCC[C@H](N)C(=O)O)Cc1nccn1C [Compound 13]
# output 0.28

# input GET /values?readout=Blood tissue distribution&item= COC(Cn1ccnc1CN(CCCC[C@H](N)C(=O)O)Cc1nccn1CC(OC)OC)OC (stereo in doubt) [Compound 6]
# output 0.47

# input Name the reported Blood tissue distribution value associated with the molecule N[C@@H](CCCCN(Cc1ccccn1)Cc1ccccn1)C(=O)O [DpK, [ε-{N,N-di(pyridyl-2-methyl)}α-lysine], reference compound]
# output 0.07

* * *

Kidney tissue distribution by entry:
ASSAY NOTES: Rat tissue distribution of 99mTc complexes of example ligands (Table 6)
Type: in vivo, Sprague-Dawley Rats
CONDITION PARAMETERS: 99mTc complex, Kidney, 5 min
Give the value, in units of % ID/g, as a plain number.

Here is how some compounds turned out for Kidney tissue distribution.
- COMPOUND: "N[C@@H](CCCCN(Cc1nccn1CC(=O)O)Cc1nccn1CC(=O)O)C(=O)O (stereo in doubt) [Compound 2]"
  UNIT DESCRIPTOR: "% ID/g"
  Kidney tissue distribution: 6.85
- COMPOUND: "COC(Cn1ccnc1CN(CCCC[C@H](N)C(=O)O)Cc1nccn1CC(OC)OC)OC (stereo in doubt) [Compound 6]"
  UNIT DESCRIPTOR: "% ID/g"
  Kidney tissue distribution: 13.82

# input Which Kidney tissue distribution is reported for this compound? CCOCCn1ccnc1CN(CCCC[C@H](N)C(=O)O)Cc1nccn1CCOCC (stereo in doubt) [Compound 4]
# output 6.86

# input Which Kidney tissue distribution value is on record for N[C@@H](CCCCN(Cc1nccs1)Cc1nccs1)C(=O)O [DtK, (dithiazole)lysine] ?
# output 3.26

# input For the compound shown here, Cn1ccnc1CN(CCCC[C@H](N)C(=O)O)CC(=O)O [Compound 18] , give the reported Kidney tissue distribution.
# output 10.79

# input Entry N[C@@H](CCCCN(Cc1ccccn1)Cc1ccccn1)C(=O)O [DpK, [ε-{N,N-di(pyridyl-2-methyl)}α-lysine], reference compound] : reported Kidney tissue distribution = ?
# output 6.05

# input Entry Cn1ccnc1CN(CCCC[C@H](N)C(=O)O)Cc1nccn1C [Compound 13] has what Kidney tissue distribution?
# output 6.65

* * *

ASSAY NOTES: Rat tissue distribution of 99mTc complexes of example ligands (Table 6)
Assay type: in vivo, Sprague-Dawley Rats
CONDITION PARAMETERS: 99mTc complex, Kidney, 30 min
In this section, each of the compounds is paired with its reported Kidney tissue distribution.

- COMPOUND: "Cn1ccnc1CN(CCCC[C@H](N)C(=O)O)Cc1nccn1C"
  Kidney tissue distribution: "22.2 ± 3.9 % ID/g"

// next entry
# input Entry under review: N[C@@H](CCCCN(Cc1nccn1CC(=O)O)Cc1nccn1CC(=O)O)C(=O)O (stereo in doubt) . Reported Kidney tissue distribution?
# output 10.7 ± 2.3 % ID/g

* * *

ASSAY NOTES: Rat tissue distribution of 99mTc complexes of example ligands (Table 6)
Format: in vivo, Sprague-Dawley Rats
CONDITION PARAMETERS: 99mTc complex, Sk. Muscle, 60 min
Procedure: Rat Tissue Distribution Studies. The distribution and pharmacokinetics of selected ^99mTc-SAAC complexes were evaluated in normal male Sprague Dawley rats (180-200 grams) administered via the tail vein as a bolus injection (approximately 10 μCi/rat) in a constant volume of 0.1 ml. […] Tissue time-radioactivity levels expressed as percent injected dose per gram of tissue (% ID/g) was determined. […]
RESULT TYPE: Sk. Muscle tissue distribution (% ID/g)
Write the value in % ID/g as a bare number.

- MOLECULE: "Cn1ccnc1CN(CCCC[C@H](N)C(=O)O)CC(=O)O"
  Sk. Muscle tissue distribution, % ID/g: 0.05
- MOLECULE: "CCOCCn1ccnc1CN(CCCC[C@H](N)C(=O)O)Cc1nccn1CCOCC (stereo in doubt)"
  Sk. Muscle tissue distribution, % ID/g: 0.01

Proceeding to the next molecule to report its Sk. Muscle tissue distribution.
# input Give the measured Sk. Muscle tissue distribution of `Cn1ccnc1CN(CCCC[C@H](N)C(=O)O)Cc1nccn1C` .
# output 0.03

* * *

Reported Kidney tissue distribution by item:
ASSAY NOTES: Rat tissue distribution of 99mTc complexes of example ligands (Table 6)
Assay type: in vivo, Sprague-Dawley Rats
CONDITION PARAMETERS: 99mTc complex, Kidney, 120 min
# output: bare number, implied unit % ID/g

- COMPOUND: "N[C@@H](CCCCN(Cc1nccn1CC(=O)O)Cc1nccn1CC(=O)O)C(=O)O (stereo in doubt)"
  Kidney tissue distribution (% ID/g): 10.2
- COMPOUND: "COC(Cn1ccnc1CN(CCCC[C@H](N)C(=O)O)Cc1nccn1CC(OC)OC)OC (stereo in doubt)"
  Kidney tissue distribution (% ID/g): 33.18
- COMPOUND: "Cn1ccnc1CN(CCCC[C@H](N)C(=O)O)CC(=O)O"
  Kidney tissue distribution (% ID/g): 3.94
- COMPOUND: "Cn1ccnc1CN(CCCC[C@H](N)C(=O)O)Cc1nccn1C"
  Kidney tissue distribution (% ID/g): 25.5
- COMPOUND: "N[C@@H](CCCCN(Cc1nccs1)Cc1nccs1)C(=O)O"
  Kidney tissue distribution (% ID/g): 4.83

# input I'd like to know its Kidney tissue distribution. The compound in question is CCOCCn1ccnc1CN(CCCC[C@H](N)C(=O)O)Cc1nccn1CCOCC (stereo in doubt)
# output 12.54
